Published pIC50 for human DGAT2 (hDGAT2) (Homo sapiens, UniProt Q96PD7), assembled from different documents, is shown next.
pIC50: −log10 of the molar value.
metric_name: pIC50

Some solved cases for reference:
CC(C)(C)NC(=O)N1CCc2c(-c3cccc(C(F)(F)F)c3)ccc(C(=O)NC3(c4ccccn4)CC3)c2C1 :: 5.69
Cc1c(C(=O)NC2(CC(F)(F)F)CCCOC2)nc2ccc(Oc3ncccc3OCC(F)(F)F)cn12 (centres unmarked) :: 5.47
Cc1c(Oc2ncc(Cl)cc2OCC(F)(F)F)cc(F)c2nc(C(=O)NC3(C)CS(=O)(=O)C3)nn12 :: 6.42

(a) C[C@]1(NC(=O)c2nn3ccc(Oc4ncccc4OCC(F)(F)F)cc3c2Cl)CCS(=O)(=O)C1
(b) Cc1c(C(=O)NC2(C)CCS(=O)(=O)CC2)nc2ccc(OCc3ncccc3OCC(F)(F)F)cn12
(c) Cc1noc([C@@H]2C[C@H]2C(=O)NCc2ccc(-c3cccc(C(F)(F)F)c3)c3c2CN(C(=O)NC2(C)COC2)CC3)n1 (relative stereo)
(d) Cc1c(C(=O)NC2(C)CCS(=O)(=O)CC2)nc2ccc(Oc3nccc(Cl)c3OCC(F)(F)F)cn12
Inquiry: Put the entries in order of pIC50, starting with the largest number. # format: label list in the order the request specifies
Reply text: c, b, d, a

(a) Cc1c(C(=O)NC2CS(=O)(=O)C2(C)C)nc2ccc(Oc3ncc(Cl)cc3OCC(F)F)cn12 (centres unmarked)
(b) COCCNC(=O)c1ccc2c(-c3ccccc3Cl)nn(-c3ccc(F)cc3)c2c1
(c) COC(=O)c1cccc(-c2ccc(CNC(=O)C3CC3c3ccccc3)c3c2CCN(C(=O)c2cccc(F)c2)C3)c1 (centres unmarked)
(d) CC(C)n1nc(-c2cccc(OC(F)F)c2)c2ncc(C(=O)NC3(CO)CCC3)cc21
(e) COc1cccc(-c2ccc(CNC(=O)C3CC3c3ccccc3)c3c2CCN(C(=O)NC2CC(F)(F)C2)C3)c1 (centres unmarked)
Inquiry: Order the records so the highest pIC50 appears first and the lowest last. Give the labels in the order requested.
Reply text: a, d, e, b, c
(a: 8.42, d: 8.21, e: 7.06, b: 6.37, c: 5.82)

----------
pIC50: −log10 of the molar value.
We begin with pIC50 values for human DGAT2 (hDGAT2) (Homo sapiens, UniProt Q96PD7), as collected from the published literature.
metric_name: pIC50

Answered examples (5):
Cc1ccnc(Oc2ccc3nc(C(=O)NC4(C)CCS(=O)(=O)CC4)c(C)n3c2)c1OCC(F)(F)F :: 6.20
Cc1noc(C2CC2C(=O)NCc2ccc(-c3cccc(-n4cccn4)c3)c3c2CN(C(=O)N[C@@]2(C)CCS(=O)(=O)C2)CC3)n1 (stereo partly shown) :: 7.01
Cc1c(C(=O)NC2(C)CS(=O)(=O)C2)nc2ccc(Oc3ncc(Cl)cc3OCC(F)(F)F)cn12 :: 8.21
O=C(NCC1(O)CCCCC1)c1ccc2c(-c3ccccc3Cl)nn(-c3ccc(F)cc3)c2c1 :: 6.75
CC(C)c1nn(-c2cc(OCC(F)F)ncc2F)c2ncc(C(=O)NC3(C)CS(=O)(=O)C3)cc12 :: 8.66

(A) CC1(NC(=O)c2ccc3c(-c4cccc(C5CC5)c4)cn(-c4ccc(F)cn4)c3c2)CCS(=O)(=O)C1 (single isomer, unassigned; enantiomer a)
(B) O=C(NC1CCS(=O)(=O)C1)c1ccc2c(-c3ccccc3Cl)nn(-c3ccc(F)cn3)c2c1 (single isomer, unassigned)
Inquiry: Recorded pIC50 values differ for A and B ; which one is higher? Please respond with the label that marks your chosen entry.
Reply text: A

----------
pIC50: −log10 of the molar value.
This section presents pIC50 values reported for human DGAT2 (hDGAT2) (Homo sapiens, UniProt Q96PD7) in the literature.
metric_name: pIC50

CC1(NC(=O)c2cn3cc(Oc4ncc(F)cc4OCC(F)(F)F)ccc3n2)CS(=O)(=O)C1 :: 7.51
COC(=O)C1(NC(=O)c2ccc3c(-c4ccccc4Cl)nn(-c4ccc(F)cc4)c3c2)CCSC1 (racemic) :: 6.34

(a) CCOc1cccnc1Oc1cncc(-c2ncc(C(=O)NC3CCCNC3C)cn2)c1 (mixture of isomers)
(b) CC(C)(C)NC(=O)N1CCc2c(-c3cccc(OC(F)(F)F)c3)ccc(C(=O)NCc3nccc4ccccc34)c2C1
Inquiry: Of a and b , which shows the smaller pIC50 value? The response must carry the label of the picked entry.
Reply text: a
(a: 4.85, b: 6.63)

----------
What follows is literature data on pIC50 for human DGAT2 (hDGAT2) (Homo sapiens, UniProt Q96PD7).
pIC50: −log10 of the molar value.
metric_name: pIC50

Recorded results for 3 compounds are shown here.
Cc1ccc(OCC(F)(F)F)c(Oc2ccc3nc(C(=O)NC4(C)CCS(=O)(=O)CC4)c(C)n3c2)n1 :: 6.53
O=C(NCc1cncnc1)c1ccc2c(-c3ccccc3Cl)nn(-c3ccc(F)cc3)c2c1 :: 6.43
CC1(NC(=O)c2nc3ccc(Oc4ncccc4OCC(F)(F)F)cn3c2CO)CCS(=O)(=O)CC1 :: 7.96

(a) Cc1noc([C@H]2C[C@@H]2C(=O)NCc2ccc(-c3cccc(C(F)(F)F)c3)c3c2CN(C(=O)C(C)(C)O)CC3)n1 (stereo in doubt)
(b) CC(C)(C)NC(=O)N1CCc2c(-c3cccc(-n4ccnn4)c3)ccc(CNC(=O)[C@@H]3C[C@H]3c3ccccc3)c2C1 (relative stereo)
(c) C[C@@H](NC(=O)c1ccc2c(-c3ccccc3Cl)nn(-c3ccc(F)cc3)c2c1)c1ccc(C(F)(F)F)nc1
(d) CC(C)(C)NC(=O)N1CCc2c(-c3cccc(C(C)(C)O)c3)ccc(CNC(=O)[C@@H]3C[C@H]3c3ccccc3)c2C1 (relative stereo)
Inquiry: Rank descending by pIC50. Returns: the labels listed in the requested order.
Reply text: b, d, c, a

(1) CCOc1cccnc1Oc1cncc(-c2ncc(C(=O)N[C@@H]3CNCC(F)(F)C3)cn2)c1 (single isomer, unassigned)
(2) CC(C)c1cc2nc(C(=O)NC3(C)CCS(=O)(=O)CC3)cn2cc1Oc1ncccc1OCC(F)(F)F
(3) CC(C)(C)NC(=O)N1CCc2c(-c3ccn4ncnc4c3)ccc(CNC(=O)[C@@H]3C[C@H]3c3ccccc3)c2C1 (relative stereo)
(4) CCC1(NC(=O)c2nc3ccc(Oc4nccnc4OCC(F)(F)F)cn3c2C)CCS(=O)(=O)CC1
Inquiry: Arrange the 4 compounds by rising pIC50, starting with the smallest. Give the order by naming the labels one after another as requested.
Reply text: 3, 4, 1, 2

----------
Let's look at some IC50 data for human DGAT2 (hDGAT2) (Homo sapiens, UniProt Q96PD7) that I collected from the literature.
metric_name: IC50 (nM)

CC(NC(=O)c1ccc2c(-c3ccccc3Cl)nn(-c3ccc(F)cc3)c2c1)c1cn(C(=O)OC(C)(C)C)cn1 (racemic) :: 164
COc1cccc(-c2nn(-c3ccc(F)cc3)c3cc(C(=O)NC4CCS(=O)(=O)C4)ccc23)c1 (single isomer, unassigned) :: 3
O=C(NC(CO)C1CC1)c1ccc2c(-c3ccccc3Cl)nn(-c3ccc(F)cc3)c2c1 (racemic) :: 353
COc1cccc(-c2ccc(CNC(=O)C3CC3c3ccccc3)c3c2CCN(Cc2ccccc2)C3)c1 (stereo not shown) :: 4850
C[C@]1(NC(=O)c2cnc3c(-c4ccccc4Cl)cn(-c4ccc(F)cc4)c3c2)CCS(=O)(=O)C1 :: 186

(A) Cc1c(Oc2ncc(F)cc2OCC(F)(F)F)ccn2nc(C(=O)NC3(C)CCS(=O)(=O)CC3)cc12
(B) C[C@@]1(NC(=O)c2cc3cc(Oc4nccnc4OCC(F)F)ccn3n2)CCS(=O)(=O)C1
Inquiry: For the pair A and B , which member has the lower IC50 number? Please respond with the label that marks your chosen entry.
Reply text: A

(A) CC(C)n1nc(-c2cccc(OC(F)F)c2)c2ncc(C(=O)N[C@@]3(C)CCS(=O)(=O)C3)cc21
(B) Cc1cc(Oc2ncc(Cl)cc2OCC(F)F)nn2cc(C(=O)NC3(C)CS(=O)(=O)C3)nc12
Inquiry: Returns: the label, A or B , whose recorded IC50 is the lower number. Indicate which entry you chose by stating its label.
Reply text: A
(A: 7.2 nM, B: 30 nM)

----------
pIC50: −log10 of the molar value.
Assay read-out pIC50 on human DGAT2 (hDGAT2) (Homo sapiens, UniProt Q96PD7); records merged from the literature.
Sequence (Q96PD7 whole entry): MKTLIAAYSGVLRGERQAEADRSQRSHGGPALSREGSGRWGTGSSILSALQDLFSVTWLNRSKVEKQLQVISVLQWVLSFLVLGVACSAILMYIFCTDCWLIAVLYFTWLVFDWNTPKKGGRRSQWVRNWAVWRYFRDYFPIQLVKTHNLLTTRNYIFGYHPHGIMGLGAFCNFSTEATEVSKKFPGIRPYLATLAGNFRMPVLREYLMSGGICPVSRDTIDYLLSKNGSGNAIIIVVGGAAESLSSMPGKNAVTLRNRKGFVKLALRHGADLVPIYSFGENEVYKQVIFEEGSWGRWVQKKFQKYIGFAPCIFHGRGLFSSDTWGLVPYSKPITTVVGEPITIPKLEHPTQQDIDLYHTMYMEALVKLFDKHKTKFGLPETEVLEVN
metric_name: pIC50

Sample records with pIC50:
CC1(NC(=O)c2ccc3c(-c4ccccc4Cl)nn(-c4nnc(C(C)(C)C)s4)c3c2)CCS(=O)(=O)C1 (racemic) :: 6.34
CC1(NC(=O)c2nc3c(F)cc(Oc4ncc(Cl)cc4OCC(F)(F)F)cn3n2)CCS(=O)(=O)CC1 :: 8.02
Cn1nccc1-c1nn(C2CCOCC2)c2cc(C(=O)N[C@@]3(C)CCS(=O)(=O)C3)cnc12 :: 5.00
Cc1c(C(=O)NC23CC(F)(C2)C3)nc2ccc(Oc3ncc(F)cc3OCC(F)F)cn12 :: 7.25
CC(C)(C)NC(=O)N1CCc2c(-c3cccc(OC(F)(F)F)c3)ccc(C(=O)NCc3cnn4ccccc34)c2C1 :: 6.43

(A) O=C(N[C@@H](CO)c1ccc(C(F)(F)F)nc1)c1ccc2c(-c3ccccc3Cl)nn(-c3ccc(F)cc3)c2c1
(B) COc1cccc(-c2cn(-c3ccc(F)cc3)c3cc(C(=O)NC4CCS(=O)(=O)C4)ccc23)c1 (racemic)
(C) Cc1noc(C)c1-c1ccc(CNC(=O)[C@@H]2C[C@H]2c2ccccc2)c2c1CCN(C(=O)NC(C)(C)C)C2 (relative stereo)
(D) CC(C)(C)NC(=O)N1CCc2c(-c3cccc(OC(F)(F)F)c3)ccc(C(=O)NCc3cc(-c4ccccn4)no3)c2C1
Inquiry: In this exercise, place the 4 molecules in ascending sequence of their recorded pIC50. Labels, requested order.
Reply text: C, D, A, B
(C: 5.84, D: 6.28, A: 7.32, B: 8.40)
